# Tested on: Lindernia pyxidaria
# measurement.notes: Test Example 12: herbicidal effect test by treatment during growing period in paddy field
# Format: in vivo
# reported.conditions: 120 g/10a; treatment seven days after sowing in flooded paddy pot; assessed 14 days after treatment
measure: Weed suppression rate (%) Lindemia pyxidaria
The reply should contain only the number, in %.

substance.smiles | unit.string | result
CC(C)N(C(=O)n1cnn(S(C)(=O)=O)c1=O)c1ccc(Cl)cc1F | % | 40

Value of measured Weed suppression rate (%) Lindemia pyxidaria for the entry CC(C)N(C(=O)n1cnn(S(=O)(=O)c2c(F)c(F)c(F)c(F)c2F)c1=O)c1ccccc1 : 60

Reported Weed suppression rate (%) Lindemia pyxidaria ( CC(C)N(C(=O)n1cnn(S(=O)(=O)c2ccccc2Cl)c1=O)c1cccc(F)c1F ) = 80

Weed suppression rate (%) Lindemia pyxidaria for O=C(N(CC(F)(F)F)c1ccc(F)cc1F)n1cnn(S(=O)(=O)C2CCCCC2)c1=O is 90

====

# System: Monochoria vaginalis
# measurement.notes: Test Example 12: herbicidal effect test by treatment during growing period in paddy field
# Type: in vivo
# reported.conditions: 120 g/10a; treatment seven days after sowing in flooded paddy pot; assessed 14 days after treatment
Assign y whenever Weed suppression rate (%) Monochoria vaginalis does not fall below 90%; assign n whenever it does.

substance.smiles | system | discrete.label
O=C(N(CC(F)(F)F)c1ccc(F)cc1F)n1cnn(S(=O)(=O)C2CCCCC2)c1=O | Monochoria vaginalis | n
CC(C)N(C(=O)n1cnn(S(=O)(=O)C2CC2)c1=O)c1c(F)c(F)cc(F)c1F | Monochoria vaginalis | y
CC(C)N(C(=O)n1cnn(S(=O)(=O)c2ccccc2Cl)c1=O)c1ccc(F)c(F)c1F | Monochoria vaginalis | y
Cc1cc(F)ccc1N(C(=O)n1cnn(S(=O)(=O)c2ccc(Cl)cc2)c1=O)C(C)C | Monochoria vaginalis | n
Cc1cc(F)ccc1N(C(=O)n1cnn(S(=O)(=O)c2cccc(Cl)c2)c1=O)C(C)C | Monochoria vaginalis | n

*Q* Quick check: does CC(C)N(C(=O)n1cnn(S(=O)(=O)C2CCCCC2)c1=O)c1cccc(F)c1 have Weed suppression rate (%) Monochoria vaginalis greater than or equal to 90%?
*A* n

*Q* State whether the measured Weed suppression rate (%) Monochoria vaginalis reaches 90%, counting equality as reaching it, for CC(C)N(C(=O)n1cnn(S(=O)(=O)C(C)C)c1=O)c1ccc(F)cc1F
*A* y

====

Let's look at some molecules and their measured Weed suppression rate (%) Lindemia pyxidaria.
# Tested on: Lindernia pyxidaria
# measurement.notes: Test Example 12: herbicidal effect test by treatment during growing period in paddy field
# Type: in vivo
# reported.conditions: 120 g/10a; treatment seven days after sowing in flooded paddy pot; assessed 14 days after treatment
Quick reminder: number only, in %, skip the unit.

Example cases with answers are listed next.
substance.smiles | system | result
CC(C)N(C(=O)n1cnn(S(=O)(=O)C2CC2)c1=O)c1ccc(Br)cc1Cl | Lindernia pyxidaria | 80
CC(C)N(C(=O)n1cnn(S(=O)(=O)c2ccccc2)c1=O)c1ccc(F)cc1F | Lindernia pyxidaria | 90
CC(C)N(C(=O)n1cnn(S(=O)(=O)c2ccccc2F)c1=O)c1ccc(F)c(F)c1F | Lindernia pyxidaria | 100

Next up:
The molecule identified as Cc1ccc(S(=O)(=O)n2ncn(C(=O)N(c3ccccc3F)C(C)C)c2=O)cc1 registered its Weed suppression rate (%) Lindemia pyxidaria at 80
